Origin of the recorded values: patent US20240116985A1

# TARGET SYSTEM: full-length beta-Catenin (Uniprot ID P35222) (Homo sapiens (Human)) (UniProt P35222)
# Sequence (P35222 whole entry, the tested form may be a part): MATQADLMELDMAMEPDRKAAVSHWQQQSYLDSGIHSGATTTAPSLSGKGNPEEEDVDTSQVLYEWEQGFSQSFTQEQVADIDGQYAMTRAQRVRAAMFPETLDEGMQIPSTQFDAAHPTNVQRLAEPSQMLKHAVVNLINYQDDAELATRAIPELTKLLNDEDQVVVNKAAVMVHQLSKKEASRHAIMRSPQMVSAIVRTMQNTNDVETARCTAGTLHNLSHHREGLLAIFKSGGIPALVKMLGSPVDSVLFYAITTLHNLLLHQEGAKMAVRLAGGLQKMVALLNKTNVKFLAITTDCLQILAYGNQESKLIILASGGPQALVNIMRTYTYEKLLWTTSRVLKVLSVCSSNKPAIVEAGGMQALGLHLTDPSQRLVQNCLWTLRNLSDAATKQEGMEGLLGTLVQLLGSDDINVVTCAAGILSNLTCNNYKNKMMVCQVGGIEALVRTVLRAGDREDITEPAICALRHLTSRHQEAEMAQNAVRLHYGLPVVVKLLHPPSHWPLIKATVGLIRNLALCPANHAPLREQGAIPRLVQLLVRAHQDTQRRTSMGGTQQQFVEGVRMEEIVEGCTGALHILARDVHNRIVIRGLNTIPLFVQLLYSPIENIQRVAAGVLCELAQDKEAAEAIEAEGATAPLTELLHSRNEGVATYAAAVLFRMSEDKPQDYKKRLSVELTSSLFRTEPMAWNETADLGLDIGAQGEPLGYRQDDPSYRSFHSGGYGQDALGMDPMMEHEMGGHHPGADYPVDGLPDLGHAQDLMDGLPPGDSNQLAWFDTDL
# PROTOCOL TEXT: fluorescence polarization competition; full-length beta-catenin with 5FAM-labeled TCF4 residues 10-53 probe as competitor
Starred links: 1 amine or outer side, 2 acyl side, 3 side chain; linkers in the order of their positions; H or OH if unused. Positions of bridges follow the written chain, without caps; N, C: chain ends. Non-standard residues stand in square brackets, D forms with d. Primed or numbered codes have the meaning given here. B5(4) = 2,2-bis(4-pentenyl)glycine = 2-amino-2-(pent-4-en-1-yl)hept-6-enoic acid (stitching residue), C=CCCCC(CCCC=C)(N[*:1])C(=O)[*:2]; B5(3) = 2,2-bis(4-pentenyl)glycine (stitching residue), C=CCCCC(CCCC=C)(N[*:1])C(=O)[*:2]; B5 = 2-amino-2-(pent-4-en-1-yl)hept-6-enoic acid, C=CCCCC(CCCC=C)(N[*:1])C(=O)[*:2]; Dip = N[C@H](C(=O)O)C(c1ccccc1)c1ccccc1; Bta = N[C@@H](Cc1csc2ccccc12)C(=O)O; αAllylPro = C=CC[C@@]1(C(=O)O)CCCN1; tBuAla = CC(C)(C)C[C@H](N)C(=O)O; S8 = C=CCCCCCC[C@](C)(N)C(=O)O
Quick reference: EC50 of the listed items.

| BINDER | UNIT ANNOTATION | EC50 |
| --- | --- | --- |
| Ac-[αAllylPro]DI[B5(4)]DEAA[tBuAla]Q[S8]F[Bta]Q-NH2 (staple 1-4, 4-11) [I-727] | nM | 5000 |
| Ac-[αAllylPro]DI[B5]DEAA[Dip]Q[S8]F[Bta]Q-NH2 (staple 1-4, 4-11) [I-725] | nM | 5000 |
| Ac-[αAllylPro]DI[B5(3)]DEAAFN[S8]F[Bta]-NH2 (staple 1-4, 4-11) [I-714] | nM | 131 |
| Ac-[αAllylPro]D[tBuAla][B5(3)]DEAAFN[S8]F[Bta]-NH2 (staple 1-4, 4-11) [I-712] | nM | 92 |
